# Test system: primary human fibroblasts derived from IPF patients (LL29 cells)
# TEST_DETAILS: Inhibition of fibrotic process: αSMA staining in TGF-β1-treated primary human fibroblasts from IPF patients (LL29 cells)
# Format: cell-based
# RECORDED_CONDITIONS: Fibroblast, 96 h, LL29 cells treated with TGF-β1 (20 ng/mL), 4 days, 11-point dose-response from 10 μM to 1.87 nM, read-out: Inhibition of fibrosis EC50

[
  {
    "CHEMICAL_STRUCTURE": "CC(C)Nc1cncc(-c2cc3c(-c4nc5c(-c6ccoc6)cncc5[nH]4)n[nH]c3cn2)c1",
    "SYSTEM_UNDER_TEST": "primary human fibroblasts derived from IPF patients (LL29 cells)",
    "EC50": "≤ 0.009 µM"
  },
  {
    "CHEMICAL_STRUCTURE": "CN(C)c1cncc(-c2cc3c(-c4nc5c(-c6cccs6)cncc5[nH]4)n[nH]c3cn2)c1",
    "SYSTEM_UNDER_TEST": "primary human fibroblasts derived from IPF patients (LL29 cells)",
    "EC50": "≤ 0.009 µM"
  },
  {
    "CHEMICAL_STRUCTURE": "CCNCc1cncc(-c2cc3c(-c4nc5c(-c6ccoc6)cncc5[nH]4)n[nH]c3cn2)c1",
    "SYSTEM_UNDER_TEST": "primary human fibroblasts derived from IPF patients (LL29 cells)",
    "EC50": "≥ 9.99 µM"
  },
  {
    "CHEMICAL_STRUCTURE": "Cc1ccc(-c2cncc3[nH]c(-c4n[nH]c5cnc(-c6cncc(N)c6)cc45)nc23)s1",
    "SYSTEM_UNDER_TEST": "primary human fibroblasts derived from IPF patients (LL29 cells)",
    "EC50": "≤ 0.009 µM"
  },
  {
    "CHEMICAL_STRUCTURE": "Nc1cncc(-c2cc3c(-c4nc5c(-c6ccccc6F)cncc5[nH]4)n[nH]c3cn2)c1",
    "SYSTEM_UNDER_TEST": "primary human fibroblasts derived from IPF patients (LL29 cells)",
    "EC50": "≤ 0.009 µM"
  },
  {
    "CHEMICAL_STRUCTURE": "CC(C)Nc1cncc(-c2cc3c(-c4nc5c(-c6cc(F)cc(NCCN(C)C)c6)cncc5[nH]4)n[nH]c3cn2)c1",
    "SYSTEM_UNDER_TEST": "primary human fibroblasts derived from IPF patients (LL29 cells)",
    "EC50": "≥ 9.99 µM"
  },
  {
    "CHEMICAL_STRUCTURE": "CN(C)CC(=O)Nc1cncc(-c2cc3c(-c4nc5c(-c6cccc(F)c6)cncc5[nH]4)n[nH]c3cn2)c1",
    "SYSTEM_UNDER_TEST": "primary human fibroblasts derived from IPF patients (LL29 cells)",
    "EC50": "0.144 µM"
  }
]

----------
# Tested on: Wnt activity (Wnt-responsive Sp5 promoter-luciferase reporter in SW480 cells)
# TEST_DETAILS: Wnt activity screening assay: Sp5-Luc reporter gene in SW480 colon carcinoma cells
# Format: cell-based
# RECORDED_CONDITIONS: Homo sapiens
Note to self: IC50 under 200 nM means Yes, ties and anything higher get No.

[
  {
    "COMPOUND": "CC(C)(C)C(=O)Nc1cncc(-c2cc3c(-c4nc5c(-c6ccccc6F)cncc5[nH]4)n[nH]c3cn2)c1 [Compound 60]",
    "LABEL_CLASS": "Yes"
  },
  {
    "COMPOUND": "CN(C)c1cncc(-c2cc3c(-c4nc5c(-c6cccs6)cncc5[nH]4)n[nH]c3cn2)c1 [Compound 293]",
    "LABEL_CLASS": "No"
  },
  {
    "COMPOUND": "CCCCC(=O)Nc1cncc(-c2cc3c(-c4nc5c(-c6ccc(C)s6)cncc5[nH]4)n[nH]c3cn2)c1 [Compound 356]",
    "LABEL_CLASS": "Yes"
  },
  {
    "COMPOUND": "Fc1cccc(-c2cncc3[nH]c(-c4n[nH]c5cnc(-c6cn[nH]c6)cc45)nc23)c1 [Compound 887]",
    "LABEL_CLASS": "Yes"
  },
  {
    "COMPOUND": "CCCCC(=O)Nc1cncc(-c2cc3c(-c4nc5c(-c6ccccn6)cncc5[nH]4)n[nH]c3cn2)c1 [Compound 148]",
    "LABEL_CLASS": "No"
  },
  {
    "COMPOUND": "COc1cncc(-c2cc3c(-c4nc5c(-c6cccc(F)c6)cncc5[nH]4)n[nH]c3cn2)c1 [Compound 896]",
    "LABEL_CLASS": "Yes"
  },
  {
    "COMPOUND": "CS(=O)(=O)NCc1cc(F)cc(-c2cncc3[nH]c(-c4n[nH]c5cnc(-c6cncc(NC(=O)C7CCC7)c6)cc45)nc23)c1 [Compound 410]",
    "LABEL_CLASS": "Yes"
  },
  {
    "COMPOUND": "Fc1ccc(-c2cncc3[nH]c(-c4n[nH]c5cnc(-c6cncnc6)cc45)nc23)cc1 [Compound 52]",
    "LABEL_CLASS": "Yes"
  },
  {
    "COMPOUND": "CS(=O)(=O)NCc1cc(F)cc(-c2cncc3[nH]c(-c4n[nH]c5cnc(-c6cncnc6)cc45)nc23)c1 [Compound 416]",
    "LABEL_CLASS": "No"
  },
  {
    "COMPOUND": "Cc1ccc(-c2cncc3[nH]c(-c4n[nH]c5cnc(-c6cncc(CN7CCCCC7)c6)cc45)nc23)s1 [Compound 353]",
    "LABEL_CLASS": "No"
  },
  {
    "COMPOUND": "CN1CCN(c2cncc3[nH]c(-c4n[nH]c5cnc(-c6cncc(N)c6)cc45)nc23)CC1 [Compound 211]",
    "LABEL_CLASS": "No"
  },
  {
    "COMPOUND": "Cc1ccc(-c2cncc3[nH]c(-c4n[nH]c5cnc(-c6cncc(NC(=O)C(C)(C)C)c6)cc45)nc23)s1 [Compound 346]",
    "LABEL_CLASS": "Yes"
  },
  {
    "COMPOUND": "CC(C)Nc1cncc(-c2cc3c(-c4nc5c(-c6cc(F)cc(NCCN(C)C)c6)cncc5[nH]4)n[nH]c3cn2)c1 [Compound 428]",
    "LABEL_CLASS": "Yes"
  },
  {
    "COMPOUND": "CC(C)CC(=O)Nc1cncc(-c2cc3c(-c4nc5c(-c6cc(F)cc(OCCN(C)C)c6)cncc5[nH]4)n[nH]c3cn2)c1 [Compound 1192]",
    "LABEL_CLASS": "No"
  },
  {
    "COMPOUND": "Fc1cccc(-c2cncc3[nH]c(-c4n[nH]c5cnc(-c6cnccn6)cc45)nc23)c1 [Compound 902]",
    "LABEL_CLASS": "Yes"
  },
  {
    "COMPOUND": "CCC(=O)Nc1cncc(-c2cc3c(-c4nc5c(-c6cccnc6)cncc5[nH]4)n[nH]c3cn2)c1 [Compound 79]",
    "LABEL_CLASS": "No"
  },
  {
    "COMPOUND": "Cc1ncc(-c2cc3c(-c4nc5c(-c6cccc(F)c6)cncc5[nH]4)n[nH]c3cn2)n1C [Compound 889]",
    "LABEL_CLASS": "No"
  },
  {
    "COMPOUND": "CC(C)CC(=O)Nc1cncc(-c2cc3c(-c4nc5c(-c6ccc(F)s6)cncc5[nH]4)n[nH]c3cn2)c1 [Compound 314]",
    "LABEL_CLASS": "Yes"
  },
  {
    "COMPOUND": "COc1cc(F)cc(-c2cncc3[nH]c(-c4n[nH]c5cnc(-c6cncc(NC(=O)CC(C)C)c6)cc45)nc23)c1 [Compound 1324]",
    "LABEL_CLASS": "No"
  },
  {
    "COMPOUND": "FC1(F)CCN(Cc2cncc(-c3cc4c(-c5nc6c(-c7cccs7)cncc6[nH]5)n[nH]c4cn3)c2)C1 [Compound 311]",
    "LABEL_CLASS": "Yes"
  },
  {
    "COMPOUND": "O=C(Nc1cncc(-c2cc3c(-c4nc5c(N6CCCCC6)cncc5[nH]4)n[nH]c3cn2)c1)C1CC1 [Compound 175]",
    "LABEL_CLASS": "No"
  },
  {
    "COMPOUND": "CCNCc1cncc(-c2cc3c(-c4nc5c(-c6ccccc6F)cncc5[nH]4)n[nH]c3cn2)c1 [Compound 58]",
    "LABEL_CLASS": "Yes"
  },
  {
    "COMPOUND": "Cc1ccc(-c2cncc3[nH]c(-c4n[nH]c5cnc(-c6cncc(N)c6)cc45)nc23)s1 [Compound 341]",
    "LABEL_CLASS": "Yes"
  },
  {
    "COMPOUND": "O=C(Nc1cncc(-c2cc3c(-c4nc5c(-c6cccc(F)c6)cncc5[nH]4)n[nH]c3cn2)c1)C1CC1 [Compound 19]",
    "LABEL_CLASS": "Yes"
  },
  {
    "COMPOUND": "CC(C)CC(=O)Nc1cncc(-c2cc3c(-c4nc5c(-c6cc(O)cc(F)c6)cncc5[nH]4)n[nH]c3cn2)c1 [Compound 1280]",
    "LABEL_CLASS": "No"
  },
  {
    "COMPOUND": "CCNCc1cncc(-c2cc3c(-c4nc5c(-c6ccc(F)cc6)cncc5[nH]4)n[nH]c3cn2)c1 [Compound 32]",
    "LABEL_CLASS": "Yes"
  },
  {
    "COMPOUND": "CN(C)Cc1cncc(-c2cc3c(-c4nc5c(-c6cccs6)cncc5[nH]4)n[nH]c3cn2)c1 [Compound 299]",
    "LABEL_CLASS": "No"
  },
  {
    "COMPOUND": "Cc1ccncc1-c1cc2c(-c3nc4c(-c5cc(F)cc(CNS(C)(=O)=O)c5)cncc4[nH]3)n[nH]c2cn1 [Compound 395]",
    "LABEL_CLASS": "Yes"
  }
]
